Here, each record is paired with measured The results of antibiotic drug inhibiting cancer cell lines (cell viability analysis), T24 data.
tested on: T24; assay: Cell viability analysis, bladder cancer T24; format: cell-based, human; details: T24; repeated experiment
Please give the numeric answer without any surrounding text.

Some solved cases for reference:
compound=CCCSc1ccc2[nH]c(NC(=O)OC)nc2c1 experimental_system=T24 assay_value=37.98
compound="Cc1onc(-c2ccccc2Cl)c1C(=O)N[C@@H]1C(=O)N2[C@@H]1SC(C)(C)[C@@H]2C(=O)[O-].[Na+] [Cloxacillin sodium (Cloxacap)]" experimental_system=T24 assay_value=100.9
compound=CC[C@H](C)[C@H]1O[C@]2(CC[C@@H]1C)C[C@@H]1C[C@@H](C/C=C(\C)[C@@H](O[C@H]3C[C@H](OC)[C@@H](O[C@H]4C[C@H](OC)[C@@H](O)[C@H](C)O4)[C@H](C)O3)[C@@H](C)/C=C/C=C3\CO[C@@H]4[C@H](O)C(C)=C[C@@H](C(=O)O1)[C@]34O)O2 experimental_system=T24 assay_value=101.7
compound="C[C@@H]1[C@H](O)[C@@H](C)/C=C/C=C/CC/C=C/C=C/C=C/C=C/C(O[C@H]2O[C@H](C)[C@@H](O)[C@H](N)[C@@H]2O)CC2O[C@](O)(CC(O)C(O)CCC(O)CC(O)CC(O)CC(=O)O[C@H]1C)CC(O)C2C(=O)O (stereo partly shown)" experimental_system=T24 assay_value=76.44

Prompt line: Query The results of antibiotic drug inhibiting cancer cell lines (cell viability analysis), T24 on T24 for COC(=O)Nc1nc2cc(C(=O)c3ccc(F)cc3)ccc2[nH]1
Response line: 34.67

Prompt line: Same thing, different compound: CCCCCCCCCCCCCCCC[N+](C)(C)C.[Br-] [Cetrimonium Bromide]
Response line: 19.1

Prompt line: Same thing, different compound: CN[C@H](CC(C)C)C(=O)N[C@H]1C(=O)N[C@@H](CC(N)=O)C(=O)N[C@H]2C(=O)N[C@H]3C(=O)N[C@H](C(=O)N[C@H](C(=O)O)c4cc(O)cc(O)c4-c4cc3ccc4O)[C@H](O)c3ccc(c(Cl)c3)Oc3cc2cc(c3O[C@@H]2O[C@H](CO)[C@@H](O)[C@H](O)[C@H]2O[C@H]2C[C@](C)(N)[C@H](O)[C@H](C)O2)Oc2ccc(cc2Cl)[C@H]1O.Cl [Vancomycin HCl (Vancocin)]
Response line: 95.32

###

tested on: T24; test: Cell viability analysis, bladder cancer T24; type: cell-based, human; conditions: Homo sapiens, T-24, 72 h; T24; repeated experiment; read-out: The results of antibiotic drug inhibiting cancer cell lines (cell viability analysis), T24
Here, each record is paired with measured viability at 10 µM data.
Give the number; % is assumed, so skip it.

Some solved cases for reference:
compound="CCCCCCCCCCCCCCCC[N+](C)(C)CCN(Cc1ccc(OC)cc1)c1ncccn1 [Thonzonium Bromide]" assay_value=18.5
compound="COc1c(C)c2c(c(O)c1C/C=C(\\C)CCC(=O)O)C(=O)OC2 [Mycophenolic (Mycophenolate), Mycophenolic]" assay_value=48.2
compound=CC[C@H](C)C(=O)O[C@H]1CCC=C2C=C[C@H](C)[C@H](CC[C@@H]3C[C@@H](O)CC(=O)O3)[C@H]21 assay_value=67.5
compound="COC(=O)Nc1nc2ccc([S+]([O-])c3ccccc3)cc2[nH]1 (stereo not drawn)" assay_value=70.2
compound=Cc1ccc2c(Cl)cc(Cl)c(O)c2n1 assay_value=50.6

Prompt line: Which viability at 10 µM reading was recorded for the compound CC[C@@H]([C@H](C)O)n1ncn(-c2ccc(N3CCN(c4ccc(OC[C@@H]5CO[C@@](Cn6cncn6)(c6ccc(F)cc6F)C5)cc4)CC3)cc2)c1=O ?
Response line: 55.4

###

tested on: SAS (Tongue squamous cell carcinoma); assay: Cell viability analysis, tongue cancer SAS; assay type: cell-based, human
Parameter: The results of antibiotic drug inhibiting cancer cell lines (cell viability analysis), SAS

compound="O=C(Nc1ccc([N+](=O)[O-])cc1Cl)c1cc(Cl)ccc1O [Niclosamide (Niclocide)]" assay_value=23.94

Prompt line: Which The results of antibiotic drug inhibiting cancer cell lines (cell viability analysis), SAS reading was recorded for the compound CC1(C)[C@@H](O[C@H]2O[C@H](C(=O)O)[C@@H](O)[C@H](O)[C@H]2O[C@@H]2O[C@H](C(=O)O)[C@@H](O)[C@H](O)[C@H]2O)CC[C@]2(C)[C@H]3C(=O)C=C4[C@@H]5C[C@@](C)(C(=O)O)CC[C@]5(C)CC[C@@]4(C)[C@]3(C)CC[C@@H]12 [Ammonium Glycyrrhizinate (AMGZ), Ammonium Glycyrrhizinate] ?
Response line: 83.22

###

system: TSGH-8301 (Urinary Bladder Carcinoma); assay: Cell viability analysis, bladder cancer TSGH-8301; type: cell-based, human; details: Homo sapiens, 72 h, read-out: cell viability (survival rate), TSGH
Here, each record is paired with measured viability at 10 µM data.
Give the number; % is assumed, so skip it.

Some solved cases for reference:
compound="C[N+](C)(C)CCO.[Cl-] [Choline Chloride]" assay_value=129
compound=COc1cc(C)c(/C=C/C(C)=C/C=C/C(C)=C/C(=O)O)c(C)c1C assay_value=127
compound="Cl.NCCc1ccc(O)c(O)c1 [Dopamine hydrochloride (Inotropin), Dopamine hydrochloride]" assay_value=57.7

Prompt line: Which viability at 10 µM reading was recorded for the compound CCCCCCCCCCCCCCCC[n+]1ccccc1 [Cetylpyridinium Chloride] ?
Response line: 37.2

Prompt line: Same thing, different compound: O=C([O-])c1ccccc1O.[Na+] [Sodium salicylate]
Response line: 137

###

Here, each record is paired with measured viability at 10 µM data.
system: PC3 (p53−) (Prostate Adenocarcinoma); experiment: Cell viability analysis, prostate cancer PC3; format: cell-based, human; conditions: Homo sapiens, 72 h, read-out: cell viability (survival rate), PC3, drug 10 μM, 72 hours, WST-1, OD450 nm
Give the number; % is assumed, so skip it.

compound="Clc1ccc(CSC(Cn2ccnc2)c2ccc(Cl)cc2Cl)cc1 (stereo not drawn) [Sulconazole Nitrate]" assay_value=65.7

Now take the following compound into account.
Prompt line: Which viability at 10 µM reading was recorded for the compound O=C(O)Cc1ccccc1Nc1c(Cl)cccc1Cl [Diclofenac Potassium] ?
Response line: 63.3

###

tested on: C-33A (Cervical carcinoma); assay: Cell viability analysis, cervical cancer C-33A; format: cell-based, human; details: Homo sapiens, 72 h; C-33A; repeated experiment; read-out: The results of antibiotic drug inhibiting cancer cell lines (cell viability analysis), C-33A
Structures can show the parent of a compound that is named as a salt.
Parameter: viability at 10 µM
The reply should consist of the numeric value with the unit placed after it.

Some solved cases for reference:
compound="CC(C)CN(C[C@@H](O)[C@H](Cc1ccccc1)NC(=O)O[C@H]1CCOC1)S(=O)(=O)c1ccc(N)cc1 [Amprenavir (Agenerase), Amprenavir]" assay_value=109%
compound="CC[C@@H]([C@H](C)O)n1ncn(-c2ccc(N3CCN(c4ccc(OC[C@@H]5CO[C@@](Cn6cncn6)(c6ccc(F)cc6F)C5)cc4)CC3)cc2)c1=O [Posaconazole]" assay_value=35.5%
compound="CC(C)(C)CC(C)(C)c1ccc(O)c(Cc2ccc(Cl)cc2Cl)c1 [Clofoctol]" assay_value=117%

Now take the following compound into account.
Prompt line: Which viability at 10 µM reading was recorded for the compound CCc1cc2c(cc1CC)CC(NC[C@H](O)c1ccc(O)c3[nH]c(=O)ccc13)C2 [Indacaterol Maleate] ?
Response line: 94.3%

###

system: BCC (basal cell carcinoma); test: Cell viability analysis, skin cancer BCC; format: cell-based, human; conditions: BCC; repeated experiment
Parameter: The results of antibiotic drug inhibiting cancer cell lines (cell viability analysis), BCC

compound="CC1(C)S[C@@H]2[C@H](NC(=O)[C@H](N)c3ccc(O)cc3)C(=O)N2[C@H]1C(=O)[O-].[Na+] [Amoxicillin sodium (Amox), Amoxicillin sodium]" assay_value=115.1
compound=CC[C@H](C)[C@H]1O[C@]2(CC[C@@H]1C)C[C@@H]1C[C@@H](C/C=C(\C)[C@@H](O[C@H]3C[C@H](OC)[C@@H](O[C@H]4C[C@H](OC)[C@@H](O)[C@H](C)O4)[C@H](C)O3)[C@@H](C)/C=C/C=C3\CO[C@@H]4[C@H](O)C(C)=C[C@@H](C(=O)O1)[C@]34O)O2 assay_value=33.64
compound=CCCSc1ccc2[nH]c(NC(=O)OC)nc2c1 assay_value=31.25

Prompt line: Which The results of antibiotic drug inhibiting cancer cell lines (cell viability analysis), BCC reading was recorded for the compound C[C@@H]1[C@H](O)[C@@H](C)/C=C/C=C/CC/C=C/C=C/C=C/C=C/C(O[C@H]2O[C@H](C)[C@@H](O)[C@H](N)[C@@H]2O)CC2O[C@](O)(CC(O)C(O)CCC(O)CC(O)CC(O)CC(=O)O[C@H]1C)CC(O)C2C(=O)O (stereo partly shown) ?
Response line: 92.4
